Would you kindly list Inhibition for each of these compounds?
test system: PC-3; test: The concentration to inhibit cell proliferation of PC3 human tumor cell lines using the sulforhodamine B assay; type: functional
Answers are plain numbers, in %.

Use the examples below as a reference point.
C[C@@H](NC(=O)[C@@H]1CCCN1C(=O)[C@H](CCCCN)NC(=O)[C@H](Cc1c[nH]c2ccccc12)NC(=O)[C@H](CC(=O)O)NC(=O)[C@H](Cc1c[nH]cn1)NC(=O)[C@H](CO)NC(=O)[C@H](Cc1c[nH]c2ccccc12)NC(=O)[C@H](Cc1c[nH]cn1)NC(=O)[C@@H]1CCC(=O)N1)C(N)=O	2
NCCCC[C@H](NC(=O)[C@H](Cc1c[nH]c2ccccc12)NC(=O)[C@H](CCC(=O)O)NC(=O)[C@H](Cc1c[nH]cn1)NC(=O)[C@H](CO)NC(=O)[C@H](Cc1c[nH]c2ccccc12)NC(=O)[C@H](Cc1c[nH]cn1)NC(=O)[C@@H]1CCC(=O)N1)C(=O)N1CCC[C@H]1C(=O)NCC(N)=O	12
NCCCC[C@H](NC(=O)[C@H](Cc1c[nH]c2ccccc12)NC(=O)[C@H](CC(=O)O)NC(=O)[C@H](Cc1c[nH]cn1)NC(=O)[C@H](CO)NC(=O)[C@H](Cc1c[nH]c2ccccc12)NC(=O)[C@H](Cc1c[nH]cn1)NC(=O)[C@@H]1CCC(=O)N1)C(=O)N1CCC[C@H]1C(=O)NCC(N)=O	12

Field: next compound
## Input For the compound NCCCC[C@H](NC(=O)[C@H](CO)NC(=O)[C@H](Cc1c[nH]c2ccccc12)NC(=O)[C@H](Cc1c[nH]cn1)NC(=O)[C@@H]1CCC(=O)N1)C(=O)N[C@H]1CC(=O)NCCCC[C@@H](C(=O)N2CCC[C@H]2C(=O)NCC(N)=O)NC(=O)[C@H](Cc2c[nH]c3ccccc23)NC1=O , give its measured Inhibition value.
## Output 16

----------
system: PC-3; assay: The concentration to inhibit colony formation of PC3 human tumor cell lines; format: functional
Would you kindly list Inhibition for each of these molecules?
Numbers only, in %.

Use the examples below as a reference point.
NCCCC[C@H](NC(=O)[C@H](CO)NC(=O)[C@H](Cc1c[nH]c2ccccc12)NC(=O)[C@H](Cc1c[nH]cn1)NC(=O)[C@@H]1CCC(=O)N1)C(=O)N[C@H]1CC(=O)NCCCC[C@@H](C(=O)N2CCC[C@H]2C(=O)NCC(N)=O)NC(=O)[C@H](Cc2c[nH]c3ccccc23)NC1=O	11
C[C@@H](NC(=O)[C@@H]1CCCN1C(=O)[C@H](CCCCN)NC(=O)[C@H](Cc1c[nH]c2ccccc12)NC(=O)[C@H](CC(=O)O)NC(=O)[C@H](Cc1c[nH]cn1)NC(=O)[C@H](CO)NC(=O)[C@H](Cc1c[nH]c2ccccc12)NC(=O)[C@H](Cc1c[nH]cn1)NC(=O)[C@@H]1CCC(=O)N1)C(N)=O	3
NCCCC[C@H](NC(=O)[C@H](CO)NC(=O)[C@H](Cc1c[nH]c2ccccc12)NC(=O)[C@H](Cc1c[nH]cn1)NC(=O)[C@@H]1CCC(=O)N1)C(=O)N[C@@H](CC(=O)O)C(=O)N[C@@H](Cc1c[nH]c2ccccc12)C(=O)N[C@@H](CCCCN)C(=O)N1CCC[C@H]1C(=O)NCC(N)=O	0

Field: next molecule
## Input For the molecule NCCCC[C@H](NC(=O)[C@H](Cc1c[nH]c2ccccc12)NC(=O)[C@H](CC(=O)O)NC(=O)[C@H](Cc1c[nH]cn1)NC(=O)[C@H](CO)NC(=O)[C@H](Cc1c[nH]c2ccccc12)NC(=O)[C@H](Cc1c[nH]cn1)NC(=O)[C@@H]1CCC(=O)N1)C(=O)N1CC=C[C@H]1C(=O)NCC(N)=O , give its measured Inhibition value.
## Output 19
